Test: Study 1: single escalating oral dose pharmacokinetics, fed and fasted
Format: in vivo, human
Details: human, plasma, po, 150 mg, 150 mg single oral dose, fed; geometric mean
quantity.name: AUC(0-inf) (ng·h/mL)
Write the number in ng·h/mL without appending the unit.

Would you mind telling me what AUC(0-inf) value was observed for CCC(CC)c1cc(C)nc2c(-c3sc(N4CCOCC4)nc3Cl)c(C)nn12 ? 956

* * *

Experiment: Study 2 Part A: multiple-dose (14 days) pharmacokinetics
Type: in vivo, human
Details: human, plasma, oral; 200 mg daily, Day 14; geometric mean
quantity.name: AUC(0-inf) (ng·h/mL)
Write the number in ng·h/mL without appending the unit.

Would you mind telling me what AUC(0-inf) value was observed for CCC(CC)c1cc(C)nc2c(-c3sc(N4CCOCC4)nc3Cl)c(C)nn12 ? 5660

* * *

Test: Study 1: single escalating oral dose pharmacokinetics, fed and fasted
Assay type: in vivo, human
Conditions: human, plasma, po, 150 mg, 150 mg single oral dose, fasted; geometric mean
quantity.name: AUC(0-inf)

Would you mind telling me what AUC(0-inf) value was observed for CCC(CC)c1cc(C)nc2c(-c3sc(N4CCOCC4)nc3Cl)c(C)nn12 [Compound 1] ? 331 ng·h/mL

* * *

Test: Solubility in different aqueous media
Format: physicochemical
Conditions: pH 4.5 acetate buffer (USP), aqueous buffer, thermodynamic from solid; pH 4.5 Acetate (USP), equilibrium pH 4.65, 24 hours at room temperature
quantity.name: solubility at 24 h
Please answer using a numeric value trailed by its unit.

Would you mind telling me what solubility at 24 h value was observed for CCC(CC)c1cc(C)nc2c(-c3sc(N4CCOCC4)nc3Cl)c(C)nn12 ? 0.5 µg/mL

* * *

Assay: Study 1: single escalating oral dose pharmacokinetics, fed and fasted
Format: in vivo, human
Settings: human, plasma, po, 150 mg, 150 mg single oral dose, fed; geometric mean; read-out: AUC0-tlast
quantity.name: AUC(0-t) (ng·h/mL)
Write the number in ng·h/mL without appending the unit.

Would you mind telling me what AUC(0-t) value was observed for CCC(CC)c1cc(C)nc2c(-c3sc(N4CCOCC4)nc3Cl)c(C)nn12 ? 891

* * *

Test: Study 2 Part A: multiple-dose (14 days) pharmacokinetics
Assay type: in vivo, human
Details: human, plasma, oral, 150 mg, 150 mg daily, Day 14; geometric mean; read-out: Vss/F
Description: The 2-part multiple-dose study, Study 2, determined the safety and tolerability of repeated daily doses of Compound 1 and investigated the effects on biomarkers of relevance for the treatment of alcohol dependence. PK were also evaluated in the multiple-dose, dose-escalation study, Study 2. […]
quantity.name: Vd/F at 14 days (L)
Write the number in L without appending the unit.

Would you mind telling me what Vd/F at 14 days value was observed for CCC(CC)c1cc(C)nc2c(-c3sc(N4CCOCC4)nc3Cl)c(C)nn12 ? 6170

* * *

Assay: Study 1: single escalating oral dose pharmacokinetics, fed and fasted
Type: in vivo, human
Settings: human, plasma, po, 150 mg, 150 mg single oral dose, fasted; geometric mean
quantity.name: Cmax (ng/mL)
Write the number in ng/mL without appending the unit.

Would you mind telling me what Cmax value was observed for CCC(CC)c1cc(C)nc2c(-c3sc(N4CCOCC4)nc3Cl)c(C)nn12 ? 8.22

* * *

Experiment: Solubility in different aqueous media
Assay type: physicochemical
Settings: pH 6.0 phosphate buffer (USP), aqueous buffer, thermodynamic from solid; pH 6.0 Phosphate (USP), equilibrium pH 6.08, 24 hours at room temperature
quantity.name: solubility at 24 h (µg/mL)
Write the number in µg/mL without appending the unit.

Would you mind telling me what solubility at 24 h value was observed for CCC(CC)c1cc(C)nc2c(-c3sc(N4CCOCC4)nc3Cl)c(C)nn12 [Compound 1] ? 0.2

* * *

Assay: Study 2 Part A: multiple-dose (14 days) pharmacokinetics
Assay type: in vivo, human
Conditions: human, plasma, oral, 150 mg, 150 mg daily, Day 14; geometric mean
quantity.name: Cmax (ng/mL)
Write the number in ng/mL without appending the unit.

Would you mind telling me what Cmax value was observed for CCC(CC)c1cc(C)nc2c(-c3sc(N4CCOCC4)nc3Cl)c(C)nn12 [Compound 1] ? 222

* * *

Test: Solubility in different aqueous media
Format: physicochemical
Settings: simulated gastric fluid, thermodynamic from solid; SGF, equilibrium pH 2.25, 24 hours at room temperature
quantity.name: solubility at 24 h

Would you mind telling me what solubility at 24 h value was observed for CCC(CC)c1cc(C)nc2c(-c3sc(N4CCOCC4)nc3Cl)c(C)nn12 [Compound 1] ? 20.4 µg/mL

* * *

Assay: Study 1: single escalating oral dose pharmacokinetics, fed and fasted
Type: in vivo, human
Conditions: human, plasma, po, 400 mg, 400 mg single oral dose, fed; geometric mean
quantity.name: Cmax (ng/mL)
Write the number in ng/mL without appending the unit.

Would you mind telling me what Cmax value was observed for CCC(CC)c1cc(C)nc2c(-c3sc(N4CCOCC4)nc3Cl)c(C)nn12 [Compound 1] ? 207

* * *

Experiment: Study 1: single escalating oral dose pharmacokinetics, fed and fasted
Assay type: in vivo, human
Settings: human, plasma, po, 800 mg, 800 mg single oral dose, fed; geometric mean; read-out: VZ/F
quantity.name: Vd/F

Would you mind telling me what Vd/F value was observed for CCC(CC)c1cc(C)nc2c(-c3sc(N4CCOCC4)nc3Cl)c(C)nn12 ? 9970 L

* * *

Test: Study 1: single escalating oral dose pharmacokinetics, fed and fasted
Type: in vivo, human
Details: human, plasma, po, 10 mg, 10 mg single oral dose, fed; geometric mean
quantity.name: Cmax
Please answer using a numeric value trailed by its unit.

Would you mind telling me what Cmax value was observed for CCC(CC)c1cc(C)nc2c(-c3sc(N4CCOCC4)nc3Cl)c(C)nn12 ? 3.01 ng/mL

* * *

Assay: Study 1: single escalating oral dose pharmacokinetics, fed and fasted
Type: in vivo, human
Conditions: human, plasma, po, 150 mg, 150 mg single oral dose, fasted; geometric mean; read-out: VSS/F
quantity.name: Vd/F (L)
Write the number in L without appending the unit.

Would you mind telling me what Vd/F value was observed for CCC(CC)c1cc(C)nc2c(-c3sc(N4CCOCC4)nc3Cl)c(C)nn12 [Compound 1] ? 25200

* * *

Experiment: Study 1: single escalating oral dose pharmacokinetics, fed and fasted
Type: in vivo, human
Settings: human, plasma, po, 50 mg, 50 mg single oral dose, fed; geometric mean
quantity.name: Cmax (ng/mL)
Write the number in ng/mL without appending the unit.

Would you mind telling me what Cmax value was observed for CCC(CC)c1cc(C)nc2c(-c3sc(N4CCOCC4)nc3Cl)c(C)nn12 ? 19.5

* * *

Assay: Study 2 Part A: multiple-dose (14 days) pharmacokinetics
Assay type: in vivo, human
Conditions: human, plasma, oral, 150 mg, Day 1; median
quantity.name: Tmax (h)
Write the number in h without appending the unit.

Would you mind telling me what Tmax value was observed for CCC(CC)c1cc(C)nc2c(-c3sc(N4CCOCC4)nc3Cl)c(C)nn12 [Compound 1] ? 5

* * *

Test: Study 2 Part A: multiple-dose (14 days) pharmacokinetics
Format: in vivo, human
Settings: human, plasma, oral; following multiple daily dosing for 2 weeks
Protocol: The 2-part multiple-dose study, Study 2, determined the safety and tolerability of repeated daily doses of Compound 1 and investigated the effects on biomarkers of relevance for the treatment of alcohol dependence. PK were also evaluated in the multiple-dose, dose-escalation study, Study 2. […]
quantity.name: half-life at 2 weeks

Would you mind telling me what half-life at 2 weeks value was observed for CCC(CC)c1cc(C)nc2c(-c3sc(N4CCOCC4)nc3Cl)c(C)nn12 [Compound 1] ? > 100 h

* * *

Assay: Study 1: single escalating oral dose pharmacokinetics, fed and fasted
Type: in vivo, human
Conditions: human, plasma, po, 150 mg, 150 mg single oral dose, fed; geometric mean; read-out: VZ/F
quantity.name: Vd/F
Please answer using a numeric value trailed by its unit.

Would you mind telling me what Vd/F value was observed for CCC(CC)c1cc(C)nc2c(-c3sc(N4CCOCC4)nc3Cl)c(C)nn12 [Compound 1] ? 6620 L

* * *

Experiment: Study 1: single escalating oral dose pharmacokinetics, fed and fasted
Type: in vivo, human
Conditions: human, plasma, po, 800 mg, 800 mg single oral dose, fed; geometric mean; read-out: t1/2 (converted)
quantity.name: half-life (h)
Write the number in h without appending the unit.

Would you mind telling me what half-life value was observed for CCC(CC)c1cc(C)nc2c(-c3sc(N4CCOCC4)nc3Cl)c(C)nn12 ? 41.9

* * *

Test: Study 2 Part A: multiple-dose (14 days) pharmacokinetics
Type: in vivo, human
Settings: human, plasma, oral, 150 mg, 150 mg daily, Day 14; median
quantity.name: Tmax

Would you mind telling me what Tmax value was observed for CCC(CC)c1cc(C)nc2c(-c3sc(N4CCOCC4)nc3Cl)c(C)nn12 [Compound 1] ? 5 h

* * *

Experiment: Study 2 Part A: multiple-dose (14 days) pharmacokinetics
Type: in vivo, human
Details: human, plasma, oral, 200 mg, Day 1; geometric mean; read-out: AUC0-24h
quantity.name: AUC(0-t) (ng·h/mL)
Write the number in ng·h/mL without appending the unit.

Would you mind telling me what AUC(0-t) value was observed for CCC(CC)c1cc(C)nc2c(-c3sc(N4CCOCC4)nc3Cl)c(C)nn12 ? 559
